# Tested on: 134 cancer cell lines
# TEST_METHOD_NOTES: Cell viability assay (ATPlite, 72 hours), IC50 on cancer cell line panel
# ASSAY_SETUP: Homo sapiens, MV4-11, read-out: IC50 in cell proliferation assay
RECORDED_ENDPOINT: IC50 (µM)
Return type: number; implicit unit µM.

CCc1cc2c(cc1N1CCC(N3CCOCC3)CC1)C(C)(C)c1[nH]c3cc(C#N)ccc3c1C2=O | 1.07
CCN1C(=O)N(c2c(F)c(OC)cc(OC)c2F)Cc2cnc3[nH]c(CN4CCOCC4)cc3c21 | 2.49
C=CC(=O)N1CCC([C@@H]2CCNc3c(C(N)=O)c(-c4ccc(Oc5ccccc5)cc4)nn32)CC1 | 3.72
C[C@H]1Oc2cc(cnc2N)-c2c(nn(C)c2C#N)CN(C)C(=O)c2ccc(F)cc21 | 15.6

Then this molecule:
Prompt: Return reported IC50. Input molecule: `COc1cc(N2CCC(N3CCN(C)CC3)CC2)ccc1Nc1ncc(Cl)c(Nc2ccccc2P(C)(C)=O)n1`
Response: 0.033

---

# EXPERIMENTAL_TARGET: panel of 255 wild-type kinases (Homo sapiens)
# Sequence (Q15303 26-1308): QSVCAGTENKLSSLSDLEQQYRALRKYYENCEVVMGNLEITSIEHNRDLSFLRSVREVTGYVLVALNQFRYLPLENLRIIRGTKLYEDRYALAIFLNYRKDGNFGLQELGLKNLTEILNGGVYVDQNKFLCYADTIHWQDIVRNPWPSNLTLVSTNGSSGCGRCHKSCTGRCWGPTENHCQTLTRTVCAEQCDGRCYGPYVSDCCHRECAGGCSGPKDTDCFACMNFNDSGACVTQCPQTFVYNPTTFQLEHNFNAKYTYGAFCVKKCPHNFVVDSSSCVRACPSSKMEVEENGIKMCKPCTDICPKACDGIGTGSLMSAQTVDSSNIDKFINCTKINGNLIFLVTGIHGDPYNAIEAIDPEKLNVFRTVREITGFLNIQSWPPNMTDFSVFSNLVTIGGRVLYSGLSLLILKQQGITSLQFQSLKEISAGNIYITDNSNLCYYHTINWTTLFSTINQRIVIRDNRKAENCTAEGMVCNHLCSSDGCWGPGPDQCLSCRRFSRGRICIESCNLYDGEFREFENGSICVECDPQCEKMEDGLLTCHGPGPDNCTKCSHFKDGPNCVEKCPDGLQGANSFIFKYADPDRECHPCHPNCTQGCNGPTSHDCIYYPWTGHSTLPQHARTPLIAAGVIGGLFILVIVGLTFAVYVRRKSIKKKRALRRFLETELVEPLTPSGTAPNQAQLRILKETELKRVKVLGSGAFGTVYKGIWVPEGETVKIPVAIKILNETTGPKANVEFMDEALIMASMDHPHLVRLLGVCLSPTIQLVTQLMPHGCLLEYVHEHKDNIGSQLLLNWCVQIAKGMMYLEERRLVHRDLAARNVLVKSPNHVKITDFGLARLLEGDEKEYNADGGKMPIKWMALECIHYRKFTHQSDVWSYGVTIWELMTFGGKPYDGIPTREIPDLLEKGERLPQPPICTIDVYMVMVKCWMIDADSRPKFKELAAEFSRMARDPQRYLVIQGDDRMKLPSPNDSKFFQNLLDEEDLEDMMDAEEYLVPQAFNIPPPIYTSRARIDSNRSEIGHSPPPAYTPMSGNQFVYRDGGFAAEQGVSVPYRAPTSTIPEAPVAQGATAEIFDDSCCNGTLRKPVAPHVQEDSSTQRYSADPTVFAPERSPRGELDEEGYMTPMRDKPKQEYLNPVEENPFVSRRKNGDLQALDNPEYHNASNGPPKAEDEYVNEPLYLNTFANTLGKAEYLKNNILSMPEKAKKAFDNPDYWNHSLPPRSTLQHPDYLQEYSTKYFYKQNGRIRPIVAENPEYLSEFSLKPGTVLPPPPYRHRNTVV
# TEST_METHOD_NOTES: Kinase panel profiling at 1 µmol/L (MSA or IMAP), percentage inhibition
# Type: biochemical
# ASSAY_SETUP: kinase HER4; 1 µmol/L single concentration; read-out: %-inhibition at 1 µmol/L, HER4
Using inhibition at 1 µM as the sorting value, the categories are bucket 1 = under 10%, bucket 2 = from 10% up to 30%, bucket 3 = 30% and over

These recorded examples may help you get a feel for the data.
CCN1C(=O)N(c2c(F)c(OC)cc(OC)c2F)Cc2cnc3[nH]c(CN4CCOCC4)cc3c21 | bucket 1
FC(F)(F)c1ccc(CNc2ccc(Cc3c[nH]c4ncc(Cl)cc34)cn2)cn1 | bucket 2
C[C@H](Nc1ncnc2nc[nH]c12)c1cc2cccc(Cl)c2c(=O)n1-c1ccccc1 | bucket 1
Cn1cc(-c2cc3c(N4CCN(c5ncc([C@@](C)(N)c6ccc(F)cc6)cn5)CC4)ncnn3c2)cn1 | bucket 2
COc1cc2ncnc(Nc3ccc(F)c(Cl)c3)c2cc1NC(=O)/C=C/CN1CCCCC1 | bucket 3

Prompt: Which band does `CCc1nc(C(N)=O)c(Nc2ccc(N3CCC(N4CCN(C)CC4)CC3)c(OC)c2)nc1NC1CCOCC1` fall in?
Response: bucket 3

Prompt: Which band does `COC(=O)N[C@@H](C)CNc1nccc(-c2cn(C(C)C)nc2-c2cc(Cl)cc(NS(C)(=O)=O)c2F)n1` fall in?
Response: bucket 2

Prompt: Which band does `CCn1c(=O)c(-c2cc(NC(=O)Nc3ccccc3)c(F)cc2Br)cc2cnc(NC)cc21` fall in?
Response: bucket 3

Prompt: Which band does `Cc1cc(Nc2ncnc3ccc(NC4=NC(C)(C)CO4)cc23)ccc1Oc1ccn2ncnc2c1` fall in?
Response: bucket 3

Prompt: Which band does `COc1ccc(CN2C3CC2CN(c2ccc(-c4cc(OCC(C)(C)O)cn5ncc(C#N)c45)cn2)C3)cn1` fall in?
Response: bucket 1

Prompt: Which band does `Cn1cnc2c(F)c(Nc3ccc(Br)cc3Cl)c(C(=O)NOCCO)cc21` fall in?
Response: bucket 3

Prompt: Which band does `C[C@H]1Oc2cc(cnc2N)-c2c(nn(C)c2C#N)CN(C)C(=O)c2ccc(F)cc21` fall in?
Response: bucket 2

Prompt: Which band does `Cn1cnc2c(F)c(Nc3ccc(Br)cc3F)c(C(=O)NOCCO)cc21` fall in?
Response: bucket 2

Prompt: Which band does `CCN1CCN(c2ccc(Nc3cc(N(C)C(=O)Nc4c(Cl)c(OC)cc(OC)c4Cl)ncn3)cc2)CC1` fall in?
Response: bucket 2

Prompt: Which band does `Cc1nc(NC(=O)N2CCC[C@H]2C(N)=O)sc1-c1ccnc(C(C)(C)C(F)(F)F)c1` fall in?
Response: bucket 1

Prompt: Which band does `CN1CCN(c2ccc(C(=O)Nc3n[nH]c4ccc(Cc5cc(F)cc(F)c5)cc34)c(NC3CCOCC3)c2)CC1` fall in?
Response: bucket 3

Prompt: Which band does `CO[C@]1(C(=O)N[C@@H](C)c2ccc(-n3cc(F)cn3)nc2)CC[C@H](c2nc(C)cc(Nc3cc(C)[nH]n3)n2)CC1` fall in?
Response: bucket 3
